system tested: C-8 sterol isomerase ERG2 (Saccharomyces cerevisiae S288c) (UniProt P32352)
Sequence (P32352 whole entry, looked up): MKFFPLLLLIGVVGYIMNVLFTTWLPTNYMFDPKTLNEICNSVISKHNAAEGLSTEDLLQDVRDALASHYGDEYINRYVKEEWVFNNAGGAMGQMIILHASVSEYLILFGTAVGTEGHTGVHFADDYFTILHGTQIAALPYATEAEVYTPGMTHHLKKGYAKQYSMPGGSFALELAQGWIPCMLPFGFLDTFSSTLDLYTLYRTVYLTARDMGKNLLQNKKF
method summary: Inhibition of yeast sterol-delta8/7-isomerase assessed as accumulation of cholesta-8-en-3beta-ol at 1 uM
The source made the active and inactive calls. No cut-off for these calls is given here.
endpoint name: inhibition

structure string | system tested | recorded measurement
c1ccc(C[C@H]2CN(Cc3ccccc3)CCCN2Cc2ccccc2)cc1 | C-8 sterol isomerase ERG2 (Saccharomyces cerevisiae S288c) (UniProt P32352) | Active
CN1CCCN(Cc2ccccc2)[C@H](Cc2ccccc2)C1 | C-8 sterol isomerase ERG2 (Saccharomyces cerevisiae S288c) (UniProt P32352) | inactive
c1ccc(CCN2CCCN(Cc3ccccc3)[C@H](Cc3ccccc3)C2)cc1 | C-8 sterol isomerase ERG2 (Saccharomyces cerevisiae S288c) (UniProt P32352) | Active
CC(C)=CCN1CCCN(Cc2ccccc2)[C@H](Cc2ccccc2)C1 | C-8 sterol isomerase ERG2 (Saccharomyces cerevisiae S288c) (UniProt P32352) | inactive
c1ccc(C[C@@H]2CNCCCN2Cc2ccccc2)cc1 | C-8 sterol isomerase ERG2 (Saccharomyces cerevisiae S288c) (UniProt P32352) | Active
c1ccc(CCN2CCCN(Cc3ccccc3)[C@@H](Cc3ccccc3)C2)cc1 | C-8 sterol isomerase ERG2 (Saccharomyces cerevisiae S288c) (UniProt P32352) | Active
c1ccc(CCCN2CCCN(Cc3ccccc3)[C@H](Cc3ccccc3)C2)cc1 | C-8 sterol isomerase ERG2 (Saccharomyces cerevisiae S288c) (UniProt P32352) | Active
C[C@@H]1CN(CCCCc2ccccc2)CCCN1Cc1ccccc1 | C-8 sterol isomerase ERG2 (Saccharomyces cerevisiae S288c) (UniProt P32352) | Active
c1ccc(CCCCN2CCCN(Cc3ccccc3)[C@@H](Cc3ccccc3)C2)cc1 | C-8 sterol isomerase ERG2 (Saccharomyces cerevisiae S288c) (UniProt P32352) | inactive
COc1ccc(CN2CCCN(Cc3ccccc3)[C@@H](C(C)C)C2)cc1 | C-8 sterol isomerase ERG2 (Saccharomyces cerevisiae S288c) (UniProt P32352) | Active
c1ccc(C[C@@H]2CN(Cc3ccccc3)CCCN2Cc2ccccc2)cc1 | C-8 sterol isomerase ERG2 (Saccharomyces cerevisiae S288c) (UniProt P32352) | Active

###

system tested: Sigma intracellular receptor 2 (Rattus norvegicus, UniProt Q5U3Y7)
Sequence (Q5U3Y7 whole entry): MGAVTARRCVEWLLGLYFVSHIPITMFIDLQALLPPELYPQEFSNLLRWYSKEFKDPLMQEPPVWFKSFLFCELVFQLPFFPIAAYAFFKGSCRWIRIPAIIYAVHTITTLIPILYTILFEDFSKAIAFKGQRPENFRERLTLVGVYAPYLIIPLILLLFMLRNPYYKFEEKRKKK
method summary: Displacement of [3H]-DTG from sigma2 receptor in rat liver membranes in presence of (+)-pentazocine
Assay type: cell membranes, Membrane

compound | result units | Ki
c1ccc2c(c1)CCCC2CCCCN1CCN(C2CCCCC2)CC1 (configuration not stated) | nM | 14.6
COc1cccc2c1CCCC2CCCN1CCN(C2CCCCC2)CC1 (configuration not stated) | nM | 0.34

###

method summary: Metabolic stability in human microsomes assessed as amount of parent compound remaining after 5 mins
Type: ADME, Microsome
study conditions: read-out: Stability

structure string | remaining at 5 min
COc1ccc(CN2CCCN(Cc3ccccc3)[C@@H](C)C2)cc1 | < 50%

###

system tested: CYP3A4 (Homo sapiens, UniProt P08684)
Sequence (P08684 whole entry): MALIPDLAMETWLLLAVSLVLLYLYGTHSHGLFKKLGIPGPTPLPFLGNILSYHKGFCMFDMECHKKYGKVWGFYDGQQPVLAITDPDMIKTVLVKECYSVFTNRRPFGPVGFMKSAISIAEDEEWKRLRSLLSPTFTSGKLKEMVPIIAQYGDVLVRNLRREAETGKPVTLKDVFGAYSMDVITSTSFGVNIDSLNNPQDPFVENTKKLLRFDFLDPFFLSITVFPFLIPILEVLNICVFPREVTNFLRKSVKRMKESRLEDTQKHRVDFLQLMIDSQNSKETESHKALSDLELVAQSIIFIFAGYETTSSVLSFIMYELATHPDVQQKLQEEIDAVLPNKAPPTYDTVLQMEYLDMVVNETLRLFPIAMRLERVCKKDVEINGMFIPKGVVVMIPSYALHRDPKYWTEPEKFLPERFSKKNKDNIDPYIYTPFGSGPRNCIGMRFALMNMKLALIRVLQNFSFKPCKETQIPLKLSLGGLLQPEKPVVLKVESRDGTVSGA
method summary: Inhibition on CYP3A4 (unknown origin) at 1 uM
Assay type: ADME

structure string | system tested | inhibition at 1 µM, %
COc1ccc(CN2CCCN(Cc3ccccc3)[C@@H](C)C2)cc1 | CYP3A4 (Homo sapiens, UniProt P08684) | 7

###

system tested: C-8 sterol isomerase ERG2 (Saccharomyces cerevisiae S288c)
method summary: Inhibition of yeast sterol-delta8/7-isomerase assessed as accumulation of cholesta-7-en-3beta-ol at 50 uM
Activity calls are given as the source filed them. No cut-off for these calls is given here.

structure string | inhibition
C[C@@H]1CN(CCCCc2ccccc2)CCCN1Cc1ccccc1 | Active
c1ccc(C[C@@H]2CNCCCN2Cc2ccccc2)cc1 | Active
c1ccc(C[C@H]2CNCCCN2Cc2ccccc2)cc1 | Active
c1ccc(C[C@H]2CN(Cc3ccccc3)CCCN2Cc2ccccc2)cc1 | Active
CN1CCCN(Cc2ccccc2)[C@@H](Cc2ccccc2)C1 | Active
COc1ccc(CN2CCCN(Cc3ccccc3)[C@H](Cc3ccccc3)C2)cc1 | Active
c1ccc(C[C@@H]2CN(Cc3ccccc3)CCCN2Cc2ccccc2)cc1 | Active
C[C@H]1CN(CC2CCCCC2)CCCN1Cc1ccccc1 | Active
CN1CCCN(Cc2ccccc2)[C@H](Cc2ccccc2)C1 | Active
c1ccc(CCN2CCCN(Cc3ccccc3)[C@@H](Cc3ccccc3)C2)cc1 | Active
CCCCN1CCCN(Cc2ccccc2)[C@@H](C)C1 | Active

###

system tested: CYP2C19 (Homo sapiens)
Sequence (P33261 whole entry): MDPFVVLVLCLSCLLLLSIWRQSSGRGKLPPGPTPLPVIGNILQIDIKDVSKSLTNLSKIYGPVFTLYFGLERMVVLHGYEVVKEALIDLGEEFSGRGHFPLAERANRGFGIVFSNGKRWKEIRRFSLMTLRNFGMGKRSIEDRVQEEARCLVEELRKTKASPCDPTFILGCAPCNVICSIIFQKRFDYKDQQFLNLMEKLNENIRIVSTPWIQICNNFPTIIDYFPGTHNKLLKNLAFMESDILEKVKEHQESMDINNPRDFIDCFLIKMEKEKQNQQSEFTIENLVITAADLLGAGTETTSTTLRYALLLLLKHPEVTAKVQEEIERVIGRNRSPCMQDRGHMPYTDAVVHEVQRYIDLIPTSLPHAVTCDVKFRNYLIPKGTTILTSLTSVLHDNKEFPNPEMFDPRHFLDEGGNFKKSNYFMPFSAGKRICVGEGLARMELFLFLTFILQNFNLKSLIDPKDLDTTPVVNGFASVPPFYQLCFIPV
method summary: Inhibition on CYP2C19 (unknown origin) at 1 uM
Assay type: ADME

structure string | inhibition at 1 µM [%]
COc1ccc(CN2CCCN(Cc3ccccc3)[C@@H](C)C2)cc1 | 38

###

Some compounds, each annotated with its measured pKi.
system tested: Sigma intracellular receptor 2 (Rattus norvegicus, UniProt Q5U3Y7)
method summary: Displacement of [3H]-DTG from sigma2 receptor in rat liver membranes after 120 mins by liquid scintillation counting
Assay type: cell membranes, Membrane
pKi: −log10 of the molar value.

compound | comparative sign | pKi
C[C@@H]1CN(CC2CCCCC2)CCCN1Cc1ccccc1 | = | 8.15
CC(C)=CCN1CCCN(Cc2ccccc2)[C@H](Cc2ccccc2)C1 | = | 6.49
COc1ccc(CN2CCCN(Cc3ccccc3)[C@@H](C(C)C)C2)cc1 | < | 6.00
c1ccc(CCCN2CCCN(Cc3ccccc3)[C@H](Cc3ccccc3)C2)cc1 | = | 6.52
c1ccc(CCCCN2CCCN(Cc3ccccc3)[C@H](Cc3ccccc3)C2)cc1 | = | 6.37
OCC(c1ccccc1)N1CCCN(Cc2ccccc2)[C@@H](Cc2ccccc2)C1 (stereo partly specified) | < | 6.00
C[C@@H]1CN(CCCCc2ccccc2)CCCN1Cc1ccccc1 | = | 7.15
CC(C)[C@H]1CN(CC2CCCCC2)CCCN1Cc1ccccc1 | < | 6.00
CCCCN1CCCN(Cc2ccccc2)[C@@H](C)C1 | = | 6.56
CN1CCCN(Cc2ccccc2)[C@H](Cc2ccccc2)C1 | < | 6.00
c1ccc(CCN2CCCN(Cc3ccccc3)[C@H](Cc3ccccc3)C2)cc1 | < | 6.00

###

system tested: Sigma intracellular receptor 2 (Rattus norvegicus)
method summary: Displacement of [3H]-DTG from sigma2 receptor in rat liver membranes after 120 mins by liquid scintillation counting
Format: cell membranes, Membrane

compound | comparative sign | Ki (nM)
c1ccc(CCCN2CCCN(Cc3ccccc3)[C@@H](Cc3ccccc3)C2)cc1 | = | 193
OC(CN1CCCN(Cc2ccccc2)[C@H](Cc2ccccc2)C1)c1ccccc1 (stereo not given in full) | > | 1000
CCCCN1CCCN(CCCC)[C@H](Cc2ccccc2)C1 | > | 1000
c1ccc(CCN2CCCN(Cc3ccccc3)[C@@H](Cc3ccccc3)C2)cc1 | = | 426
OC(CN1CCCN(Cc2ccccc2)[C@@H](Cc2ccccc2)C1)c1ccccc1 (stereo not given in full) | = | 903

###

method summary: Metabolic stability in mouse microsomes assessed as amount of parent compound remaining after 5 mins
Type: ADME, Microsome
study conditions: read-out: Stability
endpoint name: remaining at 5 min

structure string | endpoint name | recorded measurement
COc1ccc(CN2CCCN(Cc3ccccc3)[C@@H](C)C2)cc1 | remaining at 5 min | < 50%

###

system tested: C-8 sterol isomerase ERG2 (Saccharomyces cerevisiae S288c) (UniProt P32352)
method summary: Inhibition of yeast sterol-delta8/7-isomerase assessed as accumulation of cholesta-7-en-3beta-ol at 50 uM
Active and inactive are the calls of the source. The rule behind the calls is not given here.

structure string | system tested | inhibition
C[C@@H]1CN(CC2CCCCC2)CCCN1Cc1ccccc1 | C-8 sterol isomerase ERG2 (Saccharomyces cerevisiae S288c) (UniProt P32352) | Active
CC(C)=CCN1CCCN(Cc2ccccc2)[C@H](Cc2ccccc2)C1 | C-8 sterol isomerase ERG2 (Saccharomyces cerevisiae S288c) (UniProt P32352) | Active
COc1ccc(CN2CCCN(Cc3ccccc3)[C@@H](C(C)C)C2)cc1 | C-8 sterol isomerase ERG2 (Saccharomyces cerevisiae S288c) (UniProt P32352) | Active
CC(C)[C@H]1CN(CC2CCCCC2)CCCN1Cc1ccccc1 | C-8 sterol isomerase ERG2 (Saccharomyces cerevisiae S288c) (UniProt P32352) | Active
c1ccc(CCCCN2CCCN(Cc3ccccc3)[C@H](Cc3ccccc3)C2)cc1 | C-8 sterol isomerase ERG2 (Saccharomyces cerevisiae S288c) (UniProt P32352) | Active
c1ccc(CCCN2CCCN(Cc3ccccc3)[C@H](Cc3ccccc3)C2)cc1 | C-8 sterol isomerase ERG2 (Saccharomyces cerevisiae S288c) (UniProt P32352) | Active
CCCCN1CCCN(Cc2ccccc2)[C@@H](Cc2ccccc2)C1 | C-8 sterol isomerase ERG2 (Saccharomyces cerevisiae S288c) (UniProt P32352) | Active
CCCCN1CCCN(Cc2ccccc2)[C@H](Cc2ccccc2)C1 | C-8 sterol isomerase ERG2 (Saccharomyces cerevisiae S288c) (UniProt P32352) | Active
COc1ccc(CN2CCCN(Cc3ccccc3)[C@@H](Cc3ccccc3)C2)cc1 | C-8 sterol isomerase ERG2 (Saccharomyces cerevisiae S288c) (UniProt P32352) | Active
CCCCN1CCCN(Cc2ccccc2)[C@H](C)C1 | C-8 sterol isomerase ERG2 (Saccharomyces cerevisiae S288c) (UniProt P32352) | Active
